Target: T1, V^583D EGFR (full-length human, FLAG tag) on BaF/3 cells (human, UniProt P00533 25-1210)
T1 construct: whole, on cells
Assay: Scatchard, 125I-EGF on BaF/3 cells, Kd1 (high-affinity site)
PARAMETER: Kd (pM)
Please give a number only; it is taken to be in pM.

[Q] Form field: reported Kd of Murine EGF, purified from mouse submaxillary glands (ligand, UniProt P01132 977-1029, looked up, iodinated with 125I (Iodogen) as tracer in the Scatchard assays, mature; also called ^125I-EGF) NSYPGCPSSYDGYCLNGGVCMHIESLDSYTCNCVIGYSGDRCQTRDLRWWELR
[A] 2.6
